Where these numbers come from: patent US12528816B2

target: human CaMKIIδ (Homo sapiens); construct: Full-length, glutathione-S-transferase(GST)-tagged, human CaMKIIδ was purchased from Carna Biosciences; purchased Carna Biosciences (CaMKIIδ); Wako Pure Chemical Industries (calmodulin) 02-111; experiment: Evaluation of in vitro CaMKII inhibitory activity (binding assay, TR-FRET); conditions: human CaMKIIδ, TR-FRET binding assay; class symbols A/B/C; read-out: Act (CaMKII inhibitory activity, binding assay)
pIC50: −log10 of the molar value.
Would you mind telling me the reported pIC50 of each entry?

Here are 5 compounds together with their reported answers.
{"structure.smiles": "C[C@@H](Cn1cnnn1)Oc1cncc(-c2ccc3ncc(-c4nccc(C(F)F)c4C#N)n3n2)n1", "experimental.value": "< 7.00"}
{"structure.smiles": "CC(=O)Nc1ccccc1-c1cnn2ccc(-c3ccc(F)c(O[C@@H](C)Cn4cnnn4)c3)nc12", "experimental.value": "< 7.00"}
{"structure.smiles": "C[C@@H](Cn1cnnn1)Oc1cccc(-c2ccn3ncc(-c4cccc(C(=O)Nc5ccccc5)c4)c3n2)c1", "experimental.value": "7.00 to 8.00"}
{"structure.smiles": "C[C@@H](Cn1cnnn1)Oc1cc(-c2ccn3ncc(-c4ccccc4Cl)c3n2)ccc1F", "experimental.value": "7.00 to 8.00"}
{"structure.smiles": "C[C@@H](Cn1cnnn1)Oc1cc(-c2ccn3ncc(-c4cccc(OC(F)(F)F)c4)c3n2)ccc1F", "experimental.value": "7.00 to 8.00"}

Kindly give each listed record's pIC50.
1. CNC(=O)c1ccccc1-c1cnn2ccc(-c3ccc(F)c(O[C@@H](C)Cn4cnnn4)c3)nc12
2. C[C@@H](Cn1cnnn1)Oc1cccc(-c2ccn3ncc(-c4cccc(C(=O)NCCCCN(C)C)c4)c3n2)c1
3. Cc1nn(C)cc1-c1cnn2ccc(-c3ccc(F)c(O[C@@H](C)Cn4cnnn4)c3)nc12
4. COc1cccc(-c2cnc3ccc(-c4ccc(F)c(O[C@@H](C)Cn5cnnn5)c4)nn23)c1C#N
5. C[C@@H](Cn1cnnn1)Oc1cccc(-c2ccn3ncc(-c4cccc(C(=O)Nc5ccncc5)c4)c3n2)c1

Found:
1. < 7.00
2. > 8.00
3. 7.00 to 8.00
4. > 8.00
5. > 8.00

Kindly give each listed record's pIC50.
1. C[C@@H](Cn1cnnn1)Oc1cc(-c2ccc3ncc(-c4ccccn4)n3n2)ccc1F
2. C[C@@H](Cn1cnnn1)Oc1cc(-c2ccc3ncc(-c4cc(C(N)=O)ccc4C(N)=O)n3n2)ccc1F
3. COC1CCN(C(=O)c2cccc(-c3cnn4ccc(-c5cccc(O[C@@H](C)Cn6cnnn6)c5)nc34)c2)CC1

Found:
1. > 8.00
2. < 7.00
3. 7.00 to 8.00

Kindly give each listed record's pIC50.
1. C[C@@H](Cn1cnnn1)Oc1cc(-c2ccc3ncc(-c4cccc(N=S(C)(C)=O)c4C#N)n3n2)ccc1F
2. COCCCOC(=O)c1c(-c2cnc3ccc(-c4ccc(F)c(O[C@@H](C)Cn5cnnn5)c4)nn23)cnn1CCCOC

Found:
["> 8.00", "< 7.00"]
